test system: Mus musculus; experiment: Anticonvulsant activity in Swiss albino mouse assessed as reduction of supramaximal electroshock-induced hind limb tonic extension response at 30 mg/kg, ip administered 30 mins before SME challenge measured after 1 hr; type: functional, Hindlimb; settings: route intraperitoneal
Would you kindly list Activity for each of these molecules?
Give the value in s but do not write s after it.

Fill in the blank: the reported Activity of Cc1csc(NC(=O)c2ccccc2)c1C(=O)NN1C2=Nc3ccccc3NC(c3cccc([N+](=O)[O-])c3)C2SC1/C=C/c1ccccc1 (stereo unspecified) is ____.
14.907

Given the molecule Cc1csc(NC(=O)c2ccccc2)c1C(=O)NN1C2=Nc3ccccc3NC(c3ccccc3O)C2SC1/C=C/c1ccccc1 (stereo unspecified) , what is its reported Activity?
14.263

Consider the molecule shown here: COc1ccc(C2Nc3ccccc3N=C3C2SC(/C=C/c2ccccc2)N3NC(=O)c2c(C)csc2NC(=O)c2ccccc2)cc1 (stereo unspecified) What is its recorded Activity?
14.907

Item Cc1csc(NC(=O)c2ccccc2)c1C(=O)NN1C2=Nc3ccccc3NC(c3ccc(F)cc3)C2SC1/C=C/c1ccccc1 (stereo unspecified) has what recorded Activity?
15.408

# get_value(readout='Activity', item= Cc1csc(NC(=O)c2ccccc2)c1C(=O)NN1C2=Nc3ccccc3NC(c3ccccc3Cl)C2SC1/C=C/c1ccccc1 (stereo unspecified) )
13.632

Which Activity value belongs to Cc1csc(NC(=O)c2ccccc2)c1C(=O)NN1C2=Nc3ccccc3NC(c3ccc(N(C)C)cc3)C2SC1/C=C/c1ccccc1 (stereo unspecified) ?
13
